Measured IC50, listed per entry.
STUDY_TARGET: Rat recombinant PDE10A (rPDE10A2) (Rattus norvegicus, UniProt Q9QYJ6)
Construct: made in house; host or cells: Sf9 insect cells (baculovirus)
Sequence (Q9QYJ6 whole entry): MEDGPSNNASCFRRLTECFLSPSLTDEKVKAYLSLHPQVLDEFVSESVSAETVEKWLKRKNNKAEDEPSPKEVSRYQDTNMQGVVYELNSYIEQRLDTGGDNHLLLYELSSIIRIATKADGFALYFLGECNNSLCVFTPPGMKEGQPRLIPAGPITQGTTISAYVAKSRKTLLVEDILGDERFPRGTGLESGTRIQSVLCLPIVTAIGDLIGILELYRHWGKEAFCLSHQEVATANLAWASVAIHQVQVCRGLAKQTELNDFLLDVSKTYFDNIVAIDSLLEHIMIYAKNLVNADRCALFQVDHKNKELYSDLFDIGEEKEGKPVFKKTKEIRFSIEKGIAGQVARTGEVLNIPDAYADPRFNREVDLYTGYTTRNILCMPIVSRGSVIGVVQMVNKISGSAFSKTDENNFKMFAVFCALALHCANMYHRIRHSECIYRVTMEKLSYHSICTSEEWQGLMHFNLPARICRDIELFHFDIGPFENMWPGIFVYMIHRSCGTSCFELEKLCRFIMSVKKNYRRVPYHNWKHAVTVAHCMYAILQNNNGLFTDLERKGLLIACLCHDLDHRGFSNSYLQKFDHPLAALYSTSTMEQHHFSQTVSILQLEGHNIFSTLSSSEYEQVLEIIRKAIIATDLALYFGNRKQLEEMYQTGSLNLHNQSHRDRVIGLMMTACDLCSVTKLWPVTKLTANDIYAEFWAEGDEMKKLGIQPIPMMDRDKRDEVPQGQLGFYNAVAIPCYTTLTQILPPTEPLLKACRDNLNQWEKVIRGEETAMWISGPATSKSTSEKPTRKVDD
METHOD_DESCRIPTION: In vitro assay PDE10A (SPA, 3H-cAMP)
Format: biochemical
PARTICULARS: read-out: PIC50 PDE10 (converted)
Just the number in nM, nothing appended.

Here are 3 molecules together with their reported answers.
[
  {
    "MOLECULE": "CCCOc1ccc(Cl)c(-c2nnc3c(C)nc4ccc(CN5CCC(F)CC5)cc4n23)c1",
    "UNIT_SYMBOL": "nM",
    "IC50": 589
  },
  {
    "MOLECULE": "Cc1nc2ccc(CN3CCOCC3)cc2n2c(-c3cncc(OCCF)c3)nnc12",
    "UNIT_SYMBOL": "nM",
    "IC50": 3550
  },
  {
    "MOLECULE": "CCCCOc1ccc(Cl)c(-c2nnc3c(C)nc4ccc(CNCC5CC5)cc4n23)c1",
    "UNIT_SYMBOL": "nM",
    "IC50": 3890
  }
]

Q: Returns the measured IC50 for the input molecule. Input: "CCCCOc1ccc(Cl)c(-c2nnc3c(C)nc4ccc(N5CCN(C)CC5)cc4n23)c1"
A: 1260

Q: One more molecule: "Cc1nc2ccc(NC3CCN(C)CC3)cc2n2c(-c3ccccc3Cl)nnc12"
A: 87.1

Q: Please do the same for "Cc1nc2ccc(C(=O)NCCc3ccccc3)cc2n2c(-c3ccccc3Cl)nnc12" as well.
A: 25.1

Q: Please answer likewise for "Cc1nc2ccc(C(=O)NCc3ccncc3)cc2n2c(-c3ccccc3)nnc12"
A: 102

Q: Input "Cc1nc2ccc(CN3CCN(C)CC3)cc2n2c(-c3cc(OC(C)C)ccc3Cl)nnc12"
A: 3630

Q: Now give it for "Cc1cncc(-c2nnc3c(C)nc4ccc(C(F)(F)F)cc4n23)c1" too.
A: 871

Q: // repeat for "CCOc1ccc(Cl)c(-c2nnc3c(C)nc4ccc(CN(C)C)cc4n23)c1" and report
A: 316

Q: Consider next the molecule "Cc1nc2ccc(O)cc2n2c(-c3ccccc3Cl)nnc12" in the same way.
A: 45.7
